Entry source: PubChem BioAssay AID651567

assay: qHTS Assay to Find Inhibitors of Chronic Active B-Cell Receptor Signaling: Hit Validation in OCI-Ly3 Assay; settings: OCI-Ly3 IkB-luciferase reporter, Chroma-Glo luminescence, 4 h; series mostly up to 46.1 µM
Hit rate of the full screen: of about 1,200 compounds, about 10 (0.8%) were called active. Inconclusive results (about 4%) are left out. Calls come from the whole dose curve; as a rule, active = well fitted inhibition curve with a large enough effect; inconclusive = small, poorly fitted or top-dose-only effect; inactive = no such curve, though single readings can be large or run the other way. The entries come from a sample that favours actives as a whole.
Write down one outcome, taken from 1 = active, 0 = inactive

Record lookup: outcome of this test for COc1cc(C(=O)N2CCN(c3cc(Cl)ccc3Cl)CC2)cc(OC)c1OC ? 0

Recorded test outcome, item CCOCCOC(=O)c1[nH]c2c(c1C)C(=O)CC(c1ccccc1)C2 (stereo not given) 0

What call does the record list for COc1cccc(-c2nnc(Nc3nc4c(F)cccc4s3)o2)c1 ? 0

Can you look up the reported call for COc1cccc(CSc2nc3ccccc3cc2C=O)c1 for me? 0

What outcome does the record of this test show for COc1cc(/C=C/c2ccc3cccc(O)c3n2)cc(Br)c1OC ? 1

What did the test return for CCCN1C(=O)C(=O)c2cc(Cl)ccc21 ? 0

# lookup: test call for CCOC(=O)c1ccc(-c2c(-c3cc(OC)c(OC)c(OC)c3)noc2C)cc1F 0

Can you look up the reported call for COc1cc(/C=C/c2ccc3cccc(O)c3n2)cc(OC)c1OC for me? 0

GET /call?item= O=C(/C=C/c1ccc(O)cc1)c1ccc(O)cc1O returns the recorded outcome of this test. 1

Here's the next entry for you.
Hi team, can someone confirm the assay call for CCOC(=O)C1CCN(S(=O)(=O)c2c(Cl)ccc3nonc23)CC1 ? 0
